System: NmPAL (PAS-ANTAR-LOV photoreceptor) (Nakamurella multipartita)
test_name: fluorescence anisotropy
measurement_setup: darkness; text elsewhere calls this micromolar binding; FA: 4 nM RNA, 12 mM HEPES/HCl pH 7.7, 135 mM KCl, 10 mM NaCl, 1 mM MgCl2, 10% w/v glycerol, 100 ug/mL BSA; dark, or after 60 s blue light (465 nm); temperature …

primary_sequence	measured_on	Kd
ACCUUCGGUUCAGCAGCGAGCCG [58 (motif 3), TAMRA]	NmPAL (PAS-ANTAR-LOV photoreceptor) (Nakamurella multipartita)	> 3 µM
